Here the recorded pIC50 is given for each entry.
Biological target: NRAS G12C (Homo sapiens (Human), UniProt P01111+P62937, G12C)
Sequence (P01111 whole entry G12C): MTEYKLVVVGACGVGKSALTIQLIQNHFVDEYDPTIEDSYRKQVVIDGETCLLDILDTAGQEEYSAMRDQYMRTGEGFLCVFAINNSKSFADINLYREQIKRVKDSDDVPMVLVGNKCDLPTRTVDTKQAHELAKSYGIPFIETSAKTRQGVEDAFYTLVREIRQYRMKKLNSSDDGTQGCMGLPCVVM
Sequence (P62937 whole entry): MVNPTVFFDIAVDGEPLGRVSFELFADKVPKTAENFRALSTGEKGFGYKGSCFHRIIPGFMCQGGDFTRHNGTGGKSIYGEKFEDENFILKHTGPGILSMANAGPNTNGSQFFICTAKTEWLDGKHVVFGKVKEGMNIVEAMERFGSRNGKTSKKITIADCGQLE
Experiment: Ras-Raf (BRAF RBD) disruption / FRET / MOA assay, NRAS G12C
Assay type: biochemical
Details: read-out: IC50* NRAS G12C FRET data
pIC50: −log10 of the molar value.
Property: pIC50

- Compound: "CCn1c(-c2cccnc2[C@H](C)OC)c2c3cc(ccc31)N1CCO[C@@](C)(C[C@H](NC(=O)[C@H](C(C)C)N(C)C(=O)C3(F)CCN(C(=O)C#CC(C)(C)N(C)C)CC3)C(=O)N3CCC[C@H](N3)C(=O)OCC(C)(C)C2)C1"
  Measured: "> 8.00"
- Compound: "C=CC(=O)N1CCN(C(=O)N(C)[C@H](C(=O)N[C@H]2Cc3cc(O)cc(c3)-c3ccc4c(c3)c(c(-c3ccccc3CCOC)n4CC)CC(C)(C)COC(=O)[C@@H]3CCCN(N3)C2=O)C(C)C)C[C@@H]1COC"
  Measured: "5.00 to 6.00"
- Compound: "CCn1c(-c2cccnc2[C@H](C)OC)c2c3cc(ccc31)-c1csc(n1)C[C@H](NC(=O)[C@@H](COC1CN(C(=O)C#CC(C)(C)N(C)C)C1)C(C)C)C(=O)N1CCC[C@H](N1)C(=O)OCC(C)(C)C2 (atropisomer, axis not shown)"
  Measured: "> 8.00"
- Compound: "CCn1c(-c2cccnc2)c2c3cc(ccc31)-c1cccc(c1)C[C@H](NC(=O)[C@H](C(C)C)N(C)C(=O)[C@H]1CCN(C(=O)C#CCN(C)C)C1)C(=O)N1CCC[C@H](N1)C(=O)OCC(C)(C)C2"
  Measured: "7.00 to 8.00"
